B1: Pistol ribozyme (parent)
chain: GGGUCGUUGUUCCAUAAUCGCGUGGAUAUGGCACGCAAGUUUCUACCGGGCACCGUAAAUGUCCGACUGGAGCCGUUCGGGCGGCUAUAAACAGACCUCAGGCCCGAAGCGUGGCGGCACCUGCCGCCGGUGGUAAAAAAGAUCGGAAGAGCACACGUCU

# Variants of: B1
# EXPERIMENT: aptazyme ON/OFF ratio, guanine; higher = stronger switching; co-transcriptional cleavage with and without guanine
PROPERTY_LABEL: aptazyme ON/OFF ratio
Write the number on its own, no unit after it.

Study these solved cases before continuing.
>  <MUTATIONS>
U11C C12G

>  <REPORTED_VALUE>
1.55

$$$$
>  <MUTATIONS>
U7G G9A U10A U11G C12A

>  <REPORTED_VALUE>
1.13

$$$$
>  <MUTATIONS>
U7G U8G G9U U10C U11C

>  <REPORTED_VALUE>
2.05

$$$$
>  <MUTATIONS>
U7A U8A G9U U11C C12G C13U

>  <REPORTED_VALUE>
1.29

$$$$
>  <MUTATIONS>
U7G U8C G9A U11A C13A

>  <REPORTED_VALUE>
1.14

$$$$
>  <MUTATIONS>
U8C G9C U10A U11G C12U

>  <REPORTED_VALUE>
1.22

$$$$

Any idea what its aptazyme ON/OFF ratio is? The variant is U7C U11G C12U C13G
1.06

Consider the variant shown here: U7C G9A U10G U11A C12G C13G What is its recorded aptazyme ON/OFF ratio?
1.31

Please report the recorded aptazyme ON/OFF ratio for U7C U8G G9A U10G U11C C12U C13A .
1.34

Endpoint output: aptazyme ON/OFF ratio of U7C G9C U10A U11C C13G . Value?
1.03

Return reported aptazyme ON/OFF ratio; argument: U7C U8C G9U U11G C12U
1.19

Request the reported aptazyme ON/OFF ratio associated with U7G U8G G9A U10C C12G C13U
1.33

Can you look up the measured aptazyme ON/OFF ratio of U7A U8C U10C U11A C12A C13A for me?
1.18

Quick one: aptazyme ON/OFF ratio of G9U U11A C13U ?
1.44

Record request: aptazyme ON/OFF ratio value, item G9A U10G U11C C12U C13U
1.4
